- Tested on: T-47D breast
- Assay Protocol: NCI tumour cell line growth inhibition, 48 h
Rule: TGI under 30 µM gives 0, otherwise 1.

Below are worked cases with known answers.
[[record]]
compound = "Cc1cc(Nc2nc(-c3ccc(F)cc3)nc3ccccc23)n[nH]1"
measured_on = "T-47D breast"
assigned_category = 0

[[record]]
compound = "COc1ccc(C2C(C#N)=C(N)Oc3c2sc2c(F)cccc32)cc1 (centres undefined)"
measured_on = "T-47D breast"
assigned_category = 0

[[record]]
compound = "CN(C(=O)Nc1ccc(Cl)c(Cl)c1)C1CCCC[C@@H]1N1CCCC1 (some centres undefined)"
measured_on = "T-47D breast"
assigned_category = 1

[[record]]
compound = "O=C1C=CC=C[C@@H]2C(C3OCCO3)CC[C@H]12.[C-]#[O+].[C-]#[O+].[C-]#[O+].[Fe] (some centres undefined)"
measured_on = "T-47D breast"
assigned_category = 1

[[record]]
compound = "O=C1NC(=NCc2ccccc2Br)S/C1=C\\c1ccc2ncccc2c1"
measured_on = "T-47D breast"
assigned_category = 0


Next, consider the following compound.
Problem: Is it the case that "S=c1nc2sc3c(c2c(Nc2ccccc2)[nH]1)CCCC3" has TGI reaching or exceeding 30 µM?
Result: 1

###

- Test system: SN12C renal
- Assay Protocol: NCI tumour cell line growth inhibition, 48 h; in the data active = GI50 below about 0.43 µM; inactive = the rest
Classes to choose from: T for active, F for inactive

Problem: For "COc1cc(-c2cc(/C=C3\C(=O)Nc4cc(Cl)ccc43)[nH]n2)cc(OC)c1OC" , which call appears in the assay record?
Result: F

###

- Tested on: 786-0 renal
- Assay Protocol: NCI tumour cell line growth inhibition, 48 h
What TGI was measured for each of the following?

[[record]]
compound = "NC1CCCCC1N.O=C([O-])c1cc(S(=O)(=O)Nc2cc(S(=O)(=O)[O-])cc3cc(S(=O)(=O)[O-])cc(O)c23)ccc1[O-].[Pt+4]"
value_kind = "TGI"
experimental_result = "> 100 µM"

[[record]]
compound = "CCOC(=O)c1c(SC(=O)C(C)(C)Oc2ccc(Cl)cc2)n(-c2ccccc2)c(=S)n(-c2ccccc2)c1=O"
value_kind = "TGI"
experimental_result = "> 100 µM"


Hi! Can you tell me TGI for each of these compounds?
1. COc1cccc(CC2C(=O)N=C(NC(C)=O)N2C)c1OC(C)=O (centres undefined)
2. C=C1c2nc3ccccc3n2C=C(c2ccc(OC)cc2)N1c1ccccc1
3. COc1ccc(-c2nc(N)n(C)c2SSc2c(-c3ccc(OC)cc3)nc(N)n2C)cc1
4. COc1cc2c(cc1OC)C(C#N)(Cc1ccccc1)N(C(=O)c1ccccc1)C=C2 (centres undefined)
5. Cc1cc(C)nc(NS(=O)(=O)c2ccc(NC(=O)c3cccc4c(Nc5ccc(S(=O)(=O)Nc6nc(C)cc(C)n6)cc5)c5ccc(Cl)cc5nc34)cc2)n1
6. N#C/C(=C/NC(=S)NCc1ccccc1)C(N)=O
7. C=CCNCCN1C(=O)c2ccc3c4c(ccc(c24)C1=O)C(=O)N(CCNCC=C)C3=O

Result:
["> 100 µM", "> 100 µM", "29.2 µM", "> 100 µM", "> 100 µM", "> 100 µM", "2.8 µM"]

###

- System: HOP-62 NSCLC
- Assay Protocol: NCI tumour cell line growth inhibition, 48 h
What TGI was measured for each of the following?

Use these answered entries as a reference point.
[[record]]
structure_string = "COc1cc(/C=C2\\C[C@H]3[C@@H]4CC=C5C[C@@H](OC(C)=O)CC[C@]5(C)[C@H]4CC[C@]3(C)\\C2=N\\O)cc(OC)c1OC"
measured_on = "HOP-62 NSCLC"
experimental_result = "> 100 µM"

[[record]]
structure_string = "CCSc1cc(C(=O)OC)c2n(c1=O)CCCC2"
measured_on = "HOP-62 NSCLC"
experimental_result = "> 100 µM"

[[record]]
structure_string = "N#Cc1c(N2CCCC2)ncn(-c2ccccc2)c1=S"
measured_on = "HOP-62 NSCLC"
experimental_result = "> 100 µM"


Hi! Can you tell me TGI for each of these molecules?
1. COc1ccc(C(=O)NCCC2=CCCCC2)cc1
2. O=C1Nc2ccccc2C12CCCC2
3. O=C(/C=C/c1cccs1)c1ccc(Cl)cc1Cl

Result:
1. > 100 µM
2. > 100 µM
3. 37.7 µM
